B1: MATN2 (parent)
chain: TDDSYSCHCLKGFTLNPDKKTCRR

variants of: B1; experiment: protein stability index of a GFP-peptide fusion (GPS, HEK-293T) (PSI 1-6); higher = more stable; conditions: c terminus: a fixed tail appended;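 note: lentivirally expressed fusions sorted by FACS into six bins by GFP to DsRed ratio, PSI derived from sequencing read proportions per bin multiplied by bin number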
READOUT: protein stability index
Reply with the value as a number alone.

Use the examples below as a reference point.
SEQ_TEXT	protein stability index
TDDSYSCHCLKGFELNPDKKTCRR	2.23
TDDSYSCHCAKGFTLNPDKKTCRR	2.48
TDDSYSCHCRKGFTLNPDKKTCRR	1.65
TDDSYSCHCLKDFTLNPDKKTCRR	2.19
TDDSYSCHRLKGFTLNPDKKTCRR	3.88

## Task State, in one line, measured protein stability index of TDDSYSCHCLKGFTLNPDYKTCRR
## Result 2.25

## Task State, in one line, measured protein stability index of TDDSYSCKCLKGFTLNPDKKTCRR
## Result 4.02

## Task State, in one line, measured protein stability index of RDDSYSCHCLKGFTLNPDKKTCRR
## Result 2.95

## Task State, in one line, measured protein stability index of TDDSYSCHCLFGFTLNPDKKTCRR
## Result 2.27

## Task State, in one line, measured protein stability index of TDDSYSCHCLKGFTLNPEKKTCRR
## Result 1.77
